meta.source: PubChem BioAssay (NCI)

Tested on: HCC-2998 colon
Assay: NCI-60 one-dose screen, 48 h (100 = growth as untreated, 0 = no growth, -100 = all killed)
Settings: 10 µM unless noted
The panel holds about 83,000 compounds, 20% with a hit somewhere; the sample as a whole holds those more often.
reported-property: growth (%)

molecule | test-result
O=C(O)c1ccc([S-])cc1.[Au+].c1ccc(CN2[CH-]N(Cc3ccccc3)C(c3ccccc3)=C2c2ccccc2)cc1 | -72.7
COc1ccc(/C=C\c2cc(OC)c(OC)c(OC)c2)c(NS(=O)(=O)c2ccc(Cl)cc2)c1O | 12.7
Fc1c[c-]c(-c2ccccn2)c(F)c1.[CH3-].[Pt+2].c1ccc([PH+](c2ccccc2)c2ccccn2)cc1 | 20.2
CC[C@H](C)[C@H](NC(=O)c1nccn1C)C(=O)N(C)[C@H](C[C@@H](OC(C)=O)c1nc(C(=O)N[C@@H](Cc2ccccc2)C[C@H](C)C(=O)OC)cs1)C(C)C | 31.5
O=C(CC1(O)C(=O)Nc2ccc(Cl)cc21)c1ccc(C(=O)NCC2CCC3(CC2)OOC2(CCCCC2)OO3)cc1 (stereo unspecified) | 83.6
COc1ccc(C2=N[C@@H](Cc3ccccc3)C(=O)Nc3ccsc32)cc1 | 81.5
O=C1NC(=O)C(=Cc2cn(CCCCCCn3c4ccccc4c(=O)c4ccccc43)c3ccccc23)C(=O)N1 | 96.8
CCOP(=O)(Nc1ccc2c(c1)/C(=N/NC(N)=S)c1ccccc1-2)OCC | 119
COc1cccc(/C=C/[N+](=O)[O-])c1 | -87.9
CCC(CC)CC1(C)CC2(C)CCOC2OO1 (stereo unspecified) | 93.4
CCOC(=O)[C@@H](C)C[C@H](Cc1ccccc1)NC(=O)c1csc([C@@H](C[C@H](C(C)C)N(C)C(=O)[C@H](CC)NC(=O)[C@H]2CCCCN2C)OC(C)=O)n1 | 3.85
